experiment: physchem
measurement context: LogPA
reported endpoint: chromatographic logP

COCC(=O)Nc1cc(-c2c(-c3ccc(F)cc3O)nn(C)c2OC(F)F)ccn1 [Compound 201] ... 2.38
CCn1cc(-c2ccnc(NC(C)=O)c2)c(-c2ccc(F)cc2)n1 [Compound 342] ... 1.57
CC(C)C(=O)Nc1nccc(-c2cn(C(C)C)nc2-c2ccc(F)cc2)n1 [Compound 355] ... 2.55
CCC(=O)Nc1cc(-c2cn(C3CC3)nc2-c2ccc(F)cc2)ccn1 [Compound 320] ... 1.97
CC(C)n1cc(-c2ccnc(NC(=O)C(C)(C)O)c2)c(-c2ccc(F)cc2)n1 [Compound 209] ... 2.42
CC(C)C(=O)Cn1cc(-c2ccncc2)c(-c2ccc(F)cc2)n1 [Compound 178] ... 1.37
CCn1cc(-c2ccnc(NC(=O)c3ccsc3C(F)F)c2)c(-c2ccc(F)cc2)n1 [Compound 334] ... 3.27
O=C(Nc1cc(-c2cn(CC(F)F)nc2-c2ccc(F)cc2)ccn1)C1CCC1 [Compound 240] ... 2.42
CC(C)Nc1nccc(-c2cn(CCC#N)nc2-c2ccc(F)cc2)n1 [Compound 362] ... 1.74
CC(C)Cn1cc(-c2ccnc(NC(=O)CC3CC3)c2)c(-c2ccc(F)c(C#N)c2)n1 [Compound 252] ... 3.14
CCn1cc(-c2ccnc(NC(=O)C(C)C)c2)c(-c2ccc(F)cc2)n1 [Compound 290] ... 2.14
CCC(=O)Nc1cc(-c2cn(C(C(=O)OC)C(C)C)nc2-c2ccc(F)cc2)ccn1 (stereo not shown) [Compound 274] ... 2.67
Fc1ccc(-c2nn(CC(F)F)cc2-c2ccncc2)cc1 [Compound 169] ... 1
CCC(=O)Nc1cc(-c2cn(CC3OCCO3)nc2-c2ccc(F)cc2)ccn1 [Compound 278] ... 1.59
Cc1cn(-c2cc(-c3cn(C(C)C)nc3-c3ccc(F)cc3)ccn2)cn1 [Compound 283] ... 2.05
CC(C)n1cc(-c2ccnc(NCc3ccccc3)n2)c(-c2ccc(F)cc2)n1 [Compound 369] ... 3.31
COCC(=O)Nc1cc(-c2cn(C(C)CC#N)nc2-c2ccc(F)cc2)ccn1 (stereo not shown) [Compound 313] ... 2.17
O=C(Nc1cc(-c2cn(CC(F)F)nc2-c2ccc(F)cc2)ccn1)c1ccsc1 [Compound 235] ... 2.69
CCC(=O)Nc1cc(-c2cn(CC3CC3(Cl)Cl)nc2-c2ccc(F)cc2)ccn1 (stereo not shown) [Compound 249] ... 2.8
CCOCCn1cc(-c2ccnc(NC(=O)CC3CC3)c2)c(-c2ccc(F)cc2)n1 [Compound 329] ... 2.48
CC(=O)Nc1cc(-c2cn(C)nc2-c2ccc(F)cc2)ccn1 [Compound 350] ... 1.32
CCn1cc(-c2ccnc(NC(=O)CCCCC(=O)OC)c2)c(-c2ccc(F)cc2)n1 [Compound 330] ... 2.16
O=C(Nc1cc(-c2cn(CCCl)nc2-c2ccc(F)cc2)ccn1)C1CC1 [Compound 221] ... 2.1
CC(C)C(=O)Nc1cc(-c2cn(OC3CCCC3)nc2-c2ccc(F)cc2)ccn1 [Compound 270] ... 3.65
CCCn1cc(-c2ccnc(NC(=O)C(C)C)c2)c(-c2ccc(F)cc2)n1 [Compound 294] ... 2.49
CC(C)C(=O)Nc1cc(-c2cn(C(C)c3ccccc3F)nc2-c2ccc(F)cc2)ccn1 (stereo not shown) [Compound 232] ... 3.41
CCC(C)C(=O)Nc1cc(-c2cn(C)nc2-c2ccc(F)cc2)ccn1 (stereo not shown) [Compound 348] ... 2.14
CC(Nc1cc(-c2cn(CC3CC3)nc2-c2ccc(F)cc2)ccn1)C(F)(F)F (stereo not shown) [Compound 317] ... 2.33
CC(C)n1cc(-c2ncnc3c2CCCN3)c(-c2ccc(F)cc2)n1 [Compound 311] ... 1.29
CCC(=O)Nc1cc(-c2cn(C(C)C3CC3)nc2-c2ccc(F)cc2)ccn1 (stereo not shown) [Compound 301] ... 2.54
O=C(CC1CC1)Nc1cc(-c2cn(CC3CC3(Cl)Cl)nc2-c2ccc(F)cc2)ccn1 (stereo not shown) [Compound 251] ... 3.3
CC(C)Cn1cc(-c2ccnc(NC(=O)Cc3ccccc3)c2)c(-c2ccc(F)cc2)n1 [Compound 191] ... 3.54
CCC(C)n1cc(-c2ccnc(NC(=O)C3CC3)c2)c(-c2ccc(F)cc2)n1 (stereo not shown) [Compound 167] ... 2.56
CCOC(=O)Nc1cc(-c2cn(C(C)c3ccccc3F)nc2-c2ccc(F)cc2)ccn1 (stereo not shown) [Compound 263] ... 3.65

These measurements were taken from patent US20110183978A1.
